- assay-target: His-GST-TVMV-hRIPK1 (1-324) (Homo sapiens (Human), UniProt Q13546)
- Sequence (Q13546 1-324): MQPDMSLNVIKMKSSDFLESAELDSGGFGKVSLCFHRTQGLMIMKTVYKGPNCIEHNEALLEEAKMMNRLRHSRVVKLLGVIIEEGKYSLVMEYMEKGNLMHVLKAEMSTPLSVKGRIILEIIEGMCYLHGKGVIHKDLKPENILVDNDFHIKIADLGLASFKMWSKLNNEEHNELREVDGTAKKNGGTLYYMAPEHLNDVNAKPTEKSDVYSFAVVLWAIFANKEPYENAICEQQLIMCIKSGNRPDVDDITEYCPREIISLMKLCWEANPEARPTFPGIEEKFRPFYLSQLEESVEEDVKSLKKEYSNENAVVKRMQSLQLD
- test: RIPK1 HTRF Binding Assay
- protocol-conditions: read-out: RIPK1 HTRF (IC50); FRET probe displacement, 1 h at rt
pIC50: −log10 of the molar value. Structures can show the parent of a compound that is named as a salt.
Decide using pIC50: a value greater than or equal to 8 is yes (1), a smaller one is no (0).

[[record]]
compound = "CCNC(=O)c1n[nH]c2cc(-c3cnc(OC)c(C(=O)N[C@@H](C)c4cc(C(F)(F)F)ccc4F)c3)ccc12"
cat = "no (0)"

[[record]]
compound = "CNC(=O)c1n[nH]c2cc(-c3cnc(OC)c(C(=O)NCc4ccccc4OC4CCCCC4)c3)ccc12"
cat = "no (0)"

[[record]]
compound = "CNC(=O)c1n[nH]c2cc(-c3cnc(C)c(C(=O)NC(C)c4cccc(OC(F)(F)F)c4)c3)ccc12 (single isomer, unassigned) [Example 156]"
cat = "yes (1)"

[[record]]
compound = "CNC(=O)c1n[nH]c2cc(-c3cnc(OC)c(C(=O)NC4CCCC(OCC(F)(F)F)C4)c3)ccc12 (stereo not shown)"
cat = "yes (1)"


# input Check if pIC50 >= 8 (inclusive). Item: `[2H]C([2H])([2H])NC(=O)c1n[nH]c2cc(-c3cnc(OC)c(C(=O)NCC(C)(C)C(=O)OC4CCOCC4)c3)ccc12`
# output no (0)

# input Try this compound too: CNC(=O)c1n[nH]c2cc(-c3cnc(OC)c(C(=O)NC4CCCC(C(=O)N5CC(F)(F)C5)C4)c3)ccc12 (stereo not shown) [Example 132, TFA]
# output no (0)

* * *

- assay-target: His-GST-TVMV-hRIPK1 (1-324) (Homo sapiens (Human), UniProt Q13546)
- test: biochemical
quantity-name: pIC50
pIC50 is defined as minus the log10 of a concentration measured in mol/L.

Please review the following examples before continuing.
[[record]]
compound = "[2H]C([2H])([2H])Oc1ncc(-c2ccc3c(C(=O)NC([2H])([2H])C([2H])([2H])[2H])n[nH]c3c2)cc1C(=O)N[C@@H]1CN(C(=O)C2CC(F)(F)C2)C[C@@H]1F [Example 192]"
quantity_name = "pIC50"
experimental_result = 6.96

[[record]]
compound = "CNC(=O)c1n[nH]c2cc(-c3cnc(OC)c(C(=O)NC4CCCC(c5ccccc5)C4)c3)ccc12 (single isomer, unassigned) [Example 21-3]"
quantity_name = "pIC50"
experimental_result = 7.66

[[record]]
compound = "CCC(c1ccccc1)n1nnc(-c2cc(-c3ccc4c(C(=O)NC)n[nH]c4c3)cnc2OC)n1 (single isomer, unassigned) [Example 18-1]"
quantity_name = "pIC50"
experimental_result = 8.26

[[record]]
compound = "[2H]C([2H])([2H])Oc1ncc(-c2ccc3c(C(=O)NC([2H])([2H])C([2H])([2H])[2H])n[nH]c3c2)cc1C(=O)N[C@H](C)c1cccc(OC(F)(F)F)c1 [Example 231]"
quantity_name = "pIC50"
experimental_result = 7.32

[[record]]
compound = "CCC(c1ccccc1)n1nnc(-c2cc(-c3ccc4c(C(=O)NC)n[nH]c4c3)cnc2OC)n1 (single isomer, unassigned) [Example 18-2]"
quantity_name = "pIC50"
experimental_result = 7.00


# input So what's the measured pIC50 for this one? [2H]C([2H])([2H])Oc1ncc(-c2ccc3c(C(=O)NC([2H])([2H])C([2H])([2H])[2H])n[nH]c3c2)cc1C(=O)N[C@@H](C)CC(=O)OC(C)(C)C [Example 238]
# output 7.33

# input Try this compound too: [2H]C([2H])([2H])Oc1ncc(-c2ccc3c(C(=O)NC([2H])([2H])C([2H])([2H])[2H])n[nH]c3c2)cc1C(=O)N[C@@H](C)c1cccc(C(F)(F)F)c1 [Example 230]
# output 7.96

* * *

- assay-target: His-GST-TVMV-hRIPK1 (1-324) (Homo sapiens (Human), UniProt Q13546)
- test: RIPK1 HTRF Binding Assay
- protocol-conditions: read-out: RIPK1 HTRF (IC50); FRET probe displacement, 1 h at rt
Where a name gives a salt, the structure may show the parent alone.
# if measured IC50 < 40 nM: fulfilled  # else: not fulfilled

[[record]]
compound = "[2H]C([2H])([2H])NC(=O)c1n[nH]c2cc(-c3cnc(OC([2H])([2H])[2H])c(C(=O)N[C@@H](C)c4cccc(C(F)(F)F)c4)c3)ccc12"
cat = "fulfilled"

[[record]]
compound = "COc1ncc(-c2ccc3c(C(=O)NC4CC4)n[nH]c3c2)cc1C(=O)N[C@@H](C)c1cc(C(F)(F)F)ccc1F [Example 208, TFA]"
cat = "fulfilled"

[[record]]
compound = "CNC(=O)c1n[nH]c2cc(-c3cc(C(=O)NC(C)c4ccccc4OC(F)(F)F)c(OC)nc3C)ccc12 (centres unmarked)"
cat = "fulfilled"

[[record]]
compound = "CNC(=O)c1n[nH]c2cc(-c3cnc(OC)c(C(=O)NCc4ccccc4C#N)c3)ccc12"
cat = "not fulfilled"


Now examine the next entry.
# input Is it true that IC50 reported for [2H]C([2H])([2H])Oc1ncc(-c2ccc3c(C(=O)NCC4CC4)n[nH]c3c2)cc1C(=O)NC(C)c1ccccc1OC(F)(F)F (centres unmarked) is less than 40 nM?
# output fulfilled

* * *

Listing of entries alongside the reported IC50.
- assay-target: His-GST-TVMV-hRIPK1 (1-324) (Homo sapiens (Human))
- test: RIPK1 HTRF Binding Assay
- protocol-conditions: read-out: RIPK1 HTRF (IC50); FRET probe displacement, 1 h at rt
Counter-ions that a name gives are not always drawn.
Give the number; nM is assumed, so skip it.

Please review the following examples before continuing.
[[record]]
compound = "CNC(=O)c1n[nH]c2cc(-c3cnc(OC)c(C(=O)NC[C@@H]4CCCC[C@H]4NC(=O)OC(C)(C)C)c3)ccc12"
assay_target = "His-GST-TVMV-hRIPK1 (1-324) (Homo sapiens (Human))"
experimental_result = 3.8

[[record]]
compound = "CNC(=O)c1n[nH]c2cc(-c3cnc(OC)c(C(=O)NCc4ccccc4CN(C)C)c3)ccc12"
assay_target = "His-GST-TVMV-hRIPK1 (1-324) (Homo sapiens (Human))"
experimental_result = 28

[[record]]
compound = "[2H]C([2H])([2H])Oc1ncc(-c2ccc3c(C(=O)NC)n[nH]c3c2)cc1C(=O)N[C@@H](C)c1cccc(C(F)(F)F)c1"
assay_target = "His-GST-TVMV-hRIPK1 (1-324) (Homo sapiens (Human))"
experimental_result = 10


For the next question, use this compound.
# input So what's the measured IC50 for this one? [2H]C([2H])([2H])Oc1ncc(-c2ccc3c(C(=O)NC4CC4)n[nH]c3c2)cc1C(=O)NC1CCCC(C(=O)N2CCC(F)(F)C2)C1 (stereo not shown) [Example 203, TFA]
# output 12

* * *

Listing of entries alongside the reported IC50.
- assay-target: His-GST-TVMV-hRIPK1 (1-324) (Homo sapiens (Human), UniProt Q13546)
- test: RIPK1 HTRF Binding Assay
- protocol-conditions: read-out: RIPK1 HTRF (IC50); FRET probe displacement, 1 h at rt
Give the number; nM is assumed, so skip it.

Please review the following examples before continuing.
[[record]]
compound = "CNC(=O)c1n[nH]c2cc(-c3cnc(OC)c(C(=O)NCC4(c5ccc(F)cc5)CC4)c3)ccc12 [Example 71]"
assay_target = "His-GST-TVMV-hRIPK1 (1-324) (Homo sapiens (Human), UniProt Q13546)"
units = "nM"
experimental_result = 80

[[record]]
compound = "CCCN(C)C(=O)C1CCCC(NC(=O)c2cc(-c3ccc4c(C(=O)NC)n[nH]c4c3)cnc2OC)C1 (stereo not drawn) [Example 100]"
assay_target = "His-GST-TVMV-hRIPK1 (1-324) (Homo sapiens (Human), UniProt Q13546)"
units = "nM"
experimental_result = 18

[[record]]
compound = "COc1ncc(-c2ccc3c(C(=O)NC4CC4)n[nH]c3c2)cc1C(=O)N[C@H](C)c1cc(OC(F)(F)F)ccc1F [Example 207]"
assay_target = "His-GST-TVMV-hRIPK1 (1-324) (Homo sapiens (Human), UniProt Q13546)"
units = "nM"
experimental_result = 53

[[record]]
compound = "CNC(=O)c1n[nH]c2cc(-c3cnc(OC)c(C(=O)NC(C)c4cccc(C(F)(F)F)c4)c3)ccc12 (stereo not drawn) [Example 101]"
assay_target = "His-GST-TVMV-hRIPK1 (1-324) (Homo sapiens (Human), UniProt Q13546)"
units = "nM"
experimental_result = 4.5

[[record]]
compound = "[2H]C([2H])([2H])Oc1ncc(-c2ccc3c(C(=O)NC4CC4)n[nH]c3c2)cc1C(=O)N[C@H](C)c1cccc(OC(F)(F)F)c1 [Example 202]"
assay_target = "His-GST-TVMV-hRIPK1 (1-324) (Homo sapiens (Human), UniProt Q13546)"
units = "nM"
experimental_result = 36


For the next question, use this compound.
# input So what's the measured IC50 for this one? CNC(=O)c1n[nH]c2cc(-c3cc(C(=O)NC(C)c4cccc(OC(F)(F)F)c4)c(C)nc3C)ccc12 (single isomer, unassigned) [Example 164]
# output 5.4
